PROTOCOL SUMMARY: CREB reporter modulators under forskolin, primary screen, cell-based, PC12, CRE-LacZ reporter, forskolin-stimulated (AID 1146);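 also: PC12 cells with 6xCRE LacZ reporter stimulated by forskolin 10 µM; beta-galactosidase reporter signal reflecting CREB driven transcription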
CONDITION DESCRIPTION: luminescence, 4.5 h, higher = more signal, called active from +8 up or from −8 down
Answer each item with its documented z-score.
Answer with the value's number alone.

Lab note: measured z-score of `COc1ccc(COC(=O)NN=C2C[C@@H](O)[C@@H](O)[C@@H]3[C@@H]4C(=O)N(Cc5ccc6c(c5)OCO6)C(=O)[C@@H]4CC[C@H]23)cc1` was 0.0695

Lab note: measured z-score of `CCO[C@H](c1cc(OC)cc([N+](=O)[O-])c1OC)[C@H](C)[C@@H](OC)[C@H](C)C=CCC(=O)OC` was -0.183

Lab note: measured z-score of `CCN1C(=O)[C@H]2[C@H]3[C@H](O)[C@H](O)CC(=NO[C@H](C)c4cn([C@H](CO)Cc5ccccc5)nn4)[C@@H]3CC[C@H]2C1=O` was -0.228

Lab note: measured z-score of `CC(C)(C)N1C(=O)[C@H]2[C@H]3[C@H](O)[C@H](O)CC(=NOC[C@@H](O)COCc4ccco4)[C@H]3CC[C@H]2C1=O` was -0.113

Lab note: measured z-score of `CC(C)=NOC[C@@H](O)[C@H]1O[C@@H]2OC(C)(C)O[C@@H]2[C@H]1O` was -0.476

Lab note: measured z-score of `O=C1C=C[C@@H](O)[C@@H]2[C@@H]3C(=O)N(C4CCCCC4)C(=O)[C@@H]3CC[C@@H]12` was 0.915

Lab note: measured z-score of COC(=O)[C@H](C)NC(=O)CCC1CC(OC(=O)NCc2cccc3ccccc23)CC2(CCCC(COC(=O)NCCOc3ccccc3)O2)O1 (stereo partly specified) was 0.222

Lab note: measured z-score of `C=CC[C@@H]1C=C[C@H](ON=CC[C@@H]2C=C[C@H](OC(C)=O)[C@@H](COC(C)=O)O2)[C@@H](CO)O1` was -0.66

Lab note: measured z-score of `CC(CCN1CCCc2nc(C)c(C)cc21)=NO[C@@H](C)c1cn([C@H](CO)Cc2ccccc2)nn1` was -0.82

Lab note: measured z-score of `CCOC(=O)CCN1C(=O)[C@H]2[C@H]3[C@H](O)[C@H](O)CC(=NO[C@@H]4O[C@H](CO)[C@@H](O)[C@H](O)[C@H]4O)[C@@H]3CC[C@H]2C1=O` was 1.17

Lab note: measured z-score of COC(=O)[C@H](C)NC(=O)CCC1CC(OC(=O)NCc2ccc3c(c2)OCO3)CC2(CCCC(COC(=O)NCc3ccccc3)O2)O1 (stereo partly specified) was -0.169

Lab note: measured z-score of `C[C@H]1CC[C@H]2C(=O)O[C@H](CO)CN2[C@@H]1c1ccc(Br)cc1` was -0.816

Lab note: measured z-score of COC(=O)[C@H](C)NC(=O)CCC1CC(OC(=O)NCc2cccc3ccccc23)CC2(CCCC(COC(=O)NCc3ccccc3)O2)O1 (stereo partly specified) was 0.0493

Lab note: measured z-score of `CCCNC(=O)OC[C@H]1O[C@H](CCON=C[C@@H](NS(=O)(=O)c2ccc(C)cc2)[C@H](C)C=CCC(=O)OC)C=C[C@@H]1Oc1ccc(OC)cc1` was 0.26

Lab note: measured z-score of `CCN1C(=O)[C@H]2[C@H]3[C@H](O)[C@H](O)CC(=NO[C@@H]4O[C@H](CO)[C@@H](O)[C@H](O)[C@H]4O)[C@H]3CC[C@H]2C1=O` was 0.322

Lab note: measured z-score of CC(CCC(=O)OC[C@H]1O[C@H](C#Cc2ccccc2)C=C[C@@H]1Oc1ccc(C)cc1)=NOC(C)CN1CCCCc2nc(C)c(C)cc21 (stereo partly specified) was 1.1

Lab note: measured z-score of `COC(=O)[C@@H]1CC[C@H](C)[C@@H](c2ccc(C)cc2)N1C(=O)c1ccc(C=NOC[C@@H](O)[C@H]2O[C@@H]3OC(C)(C)O[C@@H]3[C@H]2O)cc1` was 0.413

Lab note: measured z-score of COC(=O)[C@H](C)NC(=O)CCC1CC(OC(=O)NCCc2ccc(F)cc2)CC2(CCCC(COC(=O)NCCc3ccccc3OC)O2)O1 (stereo partly specified) was 0.0825

Lab note: measured z-score of `CC(CCN1CCCc2nc(C)c(C)cc21)=NO[C@H](C)c1cn([C@@H]2COC[C@H]2O)nn1` was -0.181

Lab note: measured z-score of `CO[C@@H]1COC(=O)[C@H](COCc2ccccc2)NC(=O)CC=C[C@@H](C)[C@H](OC)COC(=O)[C@@H](C)NC(=O)CC=C[C@H]1C` was -0.803

Lab note: measured z-score of CCOC(=O)[C@H](CC(C)C)NC(=O)CCC1CC(OC(=O)NCCc2ccc(F)cc2)CC2(CCCC(COC(=O)NCc3cccc(C(F)(F)F)c3)O2)O1 (stereo partly specified) was 0.257

Lab note: measured z-score of `CC(=O)OC[C@H]1O[C@H](CC=NOCC[C@@H]2C=C[C@H](OC(C)=O)[C@@H](COC(C)=O)O2)C=C[C@@H]1OC(C)=O` was 1.4

Lab note: measured z-score of O=C1CCCC=C1C(O)c1ccc([N+](=O)[O-])cc1 (stereo unspecified) was 0.126

Lab note: measured z-score of `CO[C@H]1COC(=O)CC=C[C@H](C)[C@H](OC)COC(=O)[C@@H](C)NC(=O)CC=C[C@@H]1C` was 0.314

Lab note: measured z-score of CCN(CC)CC(O)CN1CCCCc2nc(C)c(C)cc21 (stereo unspecified) was -0.71

Lab note: measured z-score of C[C@@H]1CC[C@H]2C(=O)OC(Cc3ccccc3)CN2[C@H]1c1ccc(Br)cc1 (stereo partly specified) was -0.517
